A compilation of published pKi results with UniProt:P00742.
Please report pKi as the negative decimal logarithm of the molar concentration, giving only the number.

Would you please look over these solved cases?
CC(C)N1CCC(CNC(=O)c2cc(-c3cccs3)nn2Cc2cc(-c3ccc(Cl)s3)on2)CC1: 6.81
CC(C)N1CCC(NC(=O)c2cc3cc(C(=O)O)cnc3n2Cc2cc(-c3ccc(Cl)s3)on2)CC1: 7.17

IN: Consider the compound `CC(C)N1CCC(NC(=O)c2nn(Cc3cc(-c4ccc(Cl)s4)on3)c3ccc(C(=O)NCC(=O)O)cc23)CC1` and give its measured pKi.
OUT: 7.85

----------
A compilation of published Ki results with UniProt:P00742.
Entries whose Ki is below 80 nM take label 1; entries at or above 80 nM take label 0.

CCOC(=O)OC(C)OC(=O)c1ccc2c(c1)nc(C(=O)NC1CCN(C(C)C)CC1)n2CC(=O)Nc1ccc(Cl)cn1 (stereo not shown): label 1
CC(C)N1CCC(NC(=O)c2cc3cc(OCCO)ncc3n2CC(=O)Nc2ccc(Cl)cn2)CC1: label 1
Cc1ncc(CNc2ccc(-c3ccc(C(=N)N)cc3)cc2)c(C)c1OCc1ccc(C(=N)N)cc1: label 0
Cc1ncc(CNc2ccc(-c3ccc(C(=N)N)cc3)cc2)c(CO)c1OCc1ccc(C(=N)N)cc1: label 0

Now turn to the next compound.
IN: Lab note: Ki threshold 80 nM. Does this compound come in strictly under it? `CN(C)C(=O)c1ccc(N2CC[C@H](N(C)S(=O)(=O)/C=C/c3ccc(Cl)s3)C2=O)c(F)c1`
OUT: label 1

----------
pKi: −log10 of the molar value.
A compilation of published pKi results with Coagulation factor X (Homo sapiens, UniProt P00742).
Note to self: class = bucket of pKi, per lower band (below 7), central band (7 to below 8), upper band (8 or more)

CC(C)N1CCC(NS(=O)(=O)CCNC(=O)c2cccc(Cl)c2)CC1: lower band
O=C1[C@@H](NS(=O)(=O)c2cc3cc(Cl)ccc3[nH]2)CCN1c1ccc2c(c1)CCNC2.O=CO: upper band
CC(C)N1CCC(NC(=O)c2cc(OCC(F)(F)F)nn2CC(=O)Nc2ccc(Cl)cn2)CC1: central band
CC(C)N1CCC(NC(=O)c2cnc(C(=O)N3CCCOCC3)n2Cc2cc(-c3ccc(Cl)s3)on2)CC1: central band

IN: For `CC(C)OC(=O)CNC(=O)c1cc(C(=O)NC2CCN(C(C)C)CC2)n(Cc2cc(-c3ccc(Cl)s3)on2)n1` , which pKi bin applies?
OUT: lower band

IN: Param item: `CC(C)N1CCC(NC(=O)c2nc3c(C(=O)N4CCOCC4)cccc3n2CC(=O)Nc2ccc(Cl)cn2)CC1`
OUT: central band

IN: Param item: `CC(C)N1CCC(NC(=O)c2cc3cc(C(=O)N4CCCOCC4)ccc3n2CC(=O)Nc2ccc(Cl)nc2)CC1`
OUT: lower band

IN: Param item: COC(=O)c1ccc(CN(C(=O)c2ccc(N=C(N)N)cc2)C2CCN(S(=O)(=O)/C=C/c3ccc(Cl)cc3)C2)cc1 (stereo not drawn)
OUT: lower band

IN: Param item: `CCCCc1ccc(-c2nc3cc(C(=N)N)ccc3[nH]2)nc1`
OUT: upper band

IN: Param item: `CC(=O)N1CCC(N(C)C(=O)C[C@@H](NS(=O)(=O)Cc2ccccc2)C(=O)N2CCC[C@H]2C(=O)NCc2cc(Cl)ccc2CN)CC1`
OUT: central band

----------
A compilation of published Ki results with Coagulation factor X (Homo sapiens, UniProt P00742).

Would you please look over these solved cases?
CC(C)N1CCC(NC(=O)c2cc3cc(OCCO)ncc3n2Cc2cc(-c3ccc(Cl)s3)on2)CC1: 47 nM
O=C(Cn1c(C(=O)Nc2ccc(-n3ccc(=O)cc3)cc2)nc2ccccc21)Nc1ccc(Cl)cn1: 47 nM
N=C(N)c1ccc(CNC(=O)[C@H](CCC2CCNCC2)NC(=O)[C@@H](CCc2cc[n+]([O-])cc2)NS(=O)(=O)Cc2ccccc2)cc1: 120 nM
COc1cccc(Cn2c(C(=O)NC3CCN(C(C)C)CC3)cc3c(C(=O)N4CC(OC)C4)cccc32)c1: 133 nM
COCCNC(=O)c1ccc(C(=O)NC2CCN(C(C)C)CC2)n1Cc1cc(-c2ccc(Cl)s2)on1: 88 nM

IN: Consider the compound `CC(C)N1CCC(NC(=O)c2cc3c(C(=O)N4CCCOCC4)cccc3n2CC(=O)Nc2ccc(Cl)cn2)CC1` and give its measured Ki.
OUT: 3 nM

IN: Param item: `CC(C)N1CCC(NC(=O)c2nc3cc(C(=O)OCCO)ccc3n2Cc2cc(-c3ccc(Cl)s3)on2)CC1`
OUT: 3.5 nM

IN: Param item: `CC(C)N1CCC(NC(=O)c2ccc(-c3ccccc3)n2Cc2cc(-c3ccc(Cl)s3)on2)CC1`
OUT: 5 nM

IN: Param item: `CN(C)C(=N)c1ccc(/C=C2/CCCC/C(=C/c3ccc(C(=N)N)cc3)C2=O)cc1`
OUT: 17.8 nM

IN: Param item: `CC(C)N1CCC(NC(=O)c2nc3c(C(=O)N4CCCOCC4)scc3n2CC(=O)Nc2ccc(Cl)cn2)CC1`
OUT: 20 nM

IN: Param item: `N=C(N)c1ccc2[nH]c(-c3nccn3Cc3ccccc3)nc2c1`
OUT: 4 nM

IN: Param item: `NCc1ccc(Cl)cc1CNC(=O)[C@@H]1CNCCN1C(=O)[C@@H](CC(=O)N1CCCCC1)NS(=O)(=O)Cc1ccccc1`
OUT: 1.4 nM

IN: Param item: `CCc1c(CNc2ccc(C(=N)N)cc2)cnc(C)c1OCc1cccc(C(=N)N)c1`
OUT: 961 nM

IN: Param item: `CC1(C)[C@@H]2C[C@H]3OB([C@H](CCCCN)NC(=O)c4ccc(-c5ccccc5)nc4)O[C@@]3(C)[C@H]1C2`
OUT: 500 to 50000 nM

IN: Param item: `NCc1ccc(Cl)cc1CNC(=O)[C@@H]1CCCN1C(=O)[C@@H](CCC(=O)O)NS(=O)(=O)Cc1ccccc1`
OUT: 93 nM

----------
A compilation of published Ki results with Coagulation factor X (Homo sapiens).
Entries whose Ki is below 300 nM take satisfied; entries at or above 300 nM take not satisfied.

Answered examples (3):
N=C(N)c1ccc(CNC(=O)[C@H](CCC2CCNCC2)NC(=O)[C@@H](CCCc2ccncc2)NS(=O)(=O)Cc2ccccc2)cc1: not satisfied
O=C1c2c(c(C(F)(F)F)nn2-c2cc3ccccc3cc2F)CCN1C1CCN(N2CCOCC2=O)CC1: satisfied
CC(C)N1CCC(NC(=O)c2nc3ccccc3n2CC(=O)Nc2ccc(Cl)cc2)CC1: satisfied

Now turn to the next molecule.
IN: Lab note: Ki threshold 300 nM. Does this molecule come in strictly under it? `CC(C)N1CCC(NC(=O)c2ccc(C(=O)OCc3ccccc3)n2Cc2cc(-c3ccc(Cl)s3)on2)CC1`
OUT: not satisfied

----------
A compilation of published Ki results with Coagulation factor X (Homo sapiens).
Answer with a number only, understood to be in µM.

Would you please look over these solved cases?
CC(C)N1CCC(NS(=O)(=O)CCCNC(=O)c2ccc(Cl)s2)CC1: 0.399
CCS(=O)(=O)c1ncc(C(=O)NC2CCN(C(C)C)CC2)n1Cc1cc(-c2ccc(Cl)s2)on1: 0.006

Read the next record carefully.
IN: Consider the compound `CC(C)N1CCC(NC(=O)c2nn(Cc3cc(-c4ccc(Cl)s4)on3)c3ccc(C(=O)NCCO)cc23)CC1` and give its measured Ki.
OUT: 0.028

----------
A compilation of published Ki results with Coagulation factor X (Homo sapiens).
Answer with a number only, understood to be in nM.

Cc1c(CNc2ccc(C(=N)N)cc2)cnc(CF)c1OCc1cccc(C(=N)N)c1: 423
Cc1nc(C2CC2)c(CNc2ccc(C(=N)N)cc2)c(CO)c1OCc1ccc(C(=N)N)cc1: 1080
CC(C)N1CCC(N2C(=O)CC(CNC(=O)c3ccc(Cl)s3)S2(=O)=O)CC1 (racemic): 32
N=C(N)c1ccc(CNC(=O)[C@H](CCC2CCNCC2)NC(=O)[C@@H](CCc2ccncc2)NS(=O)(=O)Cc2ccccc2)cc1: 20

IN: Consider the molecule `CC(C)N1CCC(NC(=O)c2nn(Cc3cc(-c4ccc(Cl)s4)on3)c3cccc(-c4noc(=O)[nH]4)c23)CC1` and give its measured Ki.
OUT: 7

----------
A compilation of published Ki results with Coagulation factor X (Homo sapiens).
Answer with a number only, understood to be in nM.

CC(C)N1CCC(NC(=O)c2cc(C(=O)N3CCSC3)nn2Cc2cc(-c3ccc(Cl)s3)on2)CC1: 144
O=C(NCc1cc(Cl)ccc1-n1cnnn1)[C@@H]1C[C@H](O)CN1C(=O)[C@@H](CCC(=O)N1CCOCC1)NS(=O)(=O)Cc1ccccc1: 5.3
CN(C(=O)C[C@@H](NS(=O)(=O)Cc1ccccc1)C(=O)N1CCC[C@H]1C(=O)NCc1cc(Cl)ccc1CN)C1CCOCC1: 1.3

Read the next record carefully.
IN: Consider the molecule `CC(C)N1CCC(NC(=O)c2cnc(-c3ccccn3)n2Cc2cc(-c3ccc(Cl)s3)on2)CC1` and give its measured Ki.
OUT: 112
